# test_target: Metabotropic glutamate receptor 8 (Rattus norvegicus) (UniProt P70579)
# Sequence (P70579 whole entry, looked up): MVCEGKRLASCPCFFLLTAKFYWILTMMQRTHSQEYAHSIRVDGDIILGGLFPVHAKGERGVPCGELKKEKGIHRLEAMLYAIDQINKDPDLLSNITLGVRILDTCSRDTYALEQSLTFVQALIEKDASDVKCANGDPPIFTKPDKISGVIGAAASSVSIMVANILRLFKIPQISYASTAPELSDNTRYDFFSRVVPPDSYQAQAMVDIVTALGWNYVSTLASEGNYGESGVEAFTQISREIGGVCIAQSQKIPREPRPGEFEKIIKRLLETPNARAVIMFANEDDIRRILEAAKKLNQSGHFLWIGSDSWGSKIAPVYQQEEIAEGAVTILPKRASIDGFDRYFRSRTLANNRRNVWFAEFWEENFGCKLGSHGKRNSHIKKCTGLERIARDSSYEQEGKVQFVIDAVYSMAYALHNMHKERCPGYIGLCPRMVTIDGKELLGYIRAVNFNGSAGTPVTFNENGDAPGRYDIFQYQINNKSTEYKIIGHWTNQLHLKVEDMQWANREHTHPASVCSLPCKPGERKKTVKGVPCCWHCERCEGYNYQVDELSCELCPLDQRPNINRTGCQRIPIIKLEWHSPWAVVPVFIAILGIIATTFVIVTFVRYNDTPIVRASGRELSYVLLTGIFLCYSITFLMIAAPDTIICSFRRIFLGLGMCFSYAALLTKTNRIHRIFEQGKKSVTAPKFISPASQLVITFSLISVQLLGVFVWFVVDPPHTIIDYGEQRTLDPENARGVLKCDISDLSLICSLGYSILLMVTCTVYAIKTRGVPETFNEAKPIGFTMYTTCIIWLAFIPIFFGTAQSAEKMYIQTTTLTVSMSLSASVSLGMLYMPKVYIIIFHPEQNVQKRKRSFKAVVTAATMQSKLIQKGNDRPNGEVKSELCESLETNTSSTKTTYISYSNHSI
# method_summary: mGlu8-mediated intracellular calcium response modulators – cell-based, HEK293 rmGlu8, Gqi9 chimera, Fluo-4 calcium, counter-screen for GIRK activator project, confirmation (AID 623869)
# condition_label: HEK293 rmGlu8/Gqi9 calcium flux, Fluo-4 fluorescence; glutamate at EC20 added after compound
About 75 (4%) of roughly 2,100 compounds were called active.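 The calls were made as follows: active = calcium fluorescence trace judged by eye to show a response, as agonist, enhancer of the glutamate response, or inhibitor; inactive = trace judged by eye to show no response.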 The list comes from a sample in which actives are over-represented; it also holds close analogues and randomly drawn compounds.
Select the matching outcome among active, inactive

Entry "CCOc1ccc2nc(/N=C/c3c(C)[nH]n(-c4ccccc4)c3=O)sc2c1" : call = ?
inactive

# fetch the recorded call for CCCc1cc(-c2n[nH]c(=S)n2C(C)c2ccccc2)cs1 (stereo unspecified) here
inactive

In this assay, the call recorded for "Cc1ccnc(NC(=S)NC(=O)c2cccs2)c1" was what?
inactive

So what was the verdict on "CCCCOc1ccc(C(=O)NNC(=S)NC(=O)CC)cc1" in this test?
inactive

Entry "Cc1cc(C)c2nc(SCC(=O)NCCC3=CCCCC3)cc(C)c2c1" : call = ?
inactive

Per the assay record, what outcome was assigned to "O=C(c1cc2nc(-c3ccccc3)cc(-c3ccccc3)n2n1)N1CCN(C(=O)c2ccco2)CC1" ?
inactive

Could you kindly confirm the outcome this assay logged for "Brc1ccccc1-c1nnc2sc(-c3ccc4c(c3)OCCO4)nn12" ?
inactive

What call does the record list for "CCCc1cc(-c2n[nH]c(=S)n2CC(C)C)cs1" ?
inactive

Outcome logged for "O=C1OC2(CCCCC2)OC(=O)C1=CNc1nc2ccccc2s1" in this assay:
inactive

Which outcome was assigned to "CCCc1cc(-c2n[nH]c(=S)n2Cc2ccccc2)cs1" in this test?
active

Please share the test call associated with "CCC(=O)n1nc(-c2cccnc2)nc1NCc1ccc(OC)cc1" .
inactive

---

# test_target: Metabotropic glutamate receptor 8 (Rattus norvegicus)
# method_summary: mGlu8-mediated intracellular calcium response modulators – cell-based, HEK293 rmGlu8, Gqi9 chimera, Fluo-4 calcium, counter-screen for GIRK activator project, confirmation (AID 623869)
# condition_label: HEK293 rmGlu8/Gqi9 calcium flux, Fluo-4 fluorescence; glutamate at EC20 added after compound
Out of some 2,100 compounds screened, about 75 (4%) were called active.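 How the source made its calls: active means calcium fluorescence trace judged by eye to show a response, as agonist, enhancer of the glutamate response, or inhibitor; inactive means trace judged by eye to show no response.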 Many of the other results were omitted from the sample, so actives are more common in it than they were.
Reply using exactly one outcome from 1.0 = active, 0.0 = inactive

Which result was noted for this compound in the test: "O=C(NC(=S)Nc1ccccc1Cl)c1csnn1"
0.0

Short answer needed: outcome of this test for "COC(=O)c1ccc(-n2c(C)cc(C(=O)CSc3ccc(NC(C)=O)cc3)c2C)cc1" ?
1.0

Which outcome did this test record for the compound "COC(=O)c1ccc(NS(=O)(=O)c2ccc(SC)cc2)cc1" ?
0.0

Recorded test outcome, item "COc1cccc(-n2c(SCC(=O)NCCC3=CCCCC3)nc3n[nH]c(C)c3c2=N)c1"
0.0

---

# test_target: Metabotropic glutamate receptor 8 (Rattus norvegicus) (UniProt P70579)
# method_summary: mGlu8-mediated intracellular calcium response modulators – cell-based, HEK293 rmGlu8, Gqi9 chimera, Fluo-4 calcium, counter-screen for GIRK activator project, confirmation (AID 623869)
# condition_label: HEK293 rmGlu8/Gqi9 calcium flux, Fluo-4 fluorescence; glutamate at EC20 added after compound
In all, about 2,100 compounds went through this assay and about 75 (4%) were called active.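 The calls were made as follows: active = calcium fluorescence trace judged by eye to show a response, as agonist, enhancer of the glutamate response, or inhibitor; inactive = trace judged by eye to show no response.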 For the sample, actives were picked, then their nearest neighbours and some compounds at random.
Would you mind answering with one of these outcomes? y (active), n (inactive)

Look up the recorded call for "CCCn1c(=O)c2ccccc2n2c(SCCOc3ccccc3F)nnc12" in this test.
y

Please state the recorded outcome for this molecule: Cc1ccc(C)c(NC(=S)NNC(=O)c2csc3c2CCC(C)C3)c1 (stereo not drawn)
n

Test call, this molecule: "O=C(N/N=C\c1ccc(Cl)s1)c1cccs1"
n

Name the outcome recorded for CC(C)Sc1nc2c(c(=O)[nH]1)C(c1cccs1)C1=C(CC(C)(C)CC1=O)N2 (stereo not drawn) in the assay.
n

Tell me the assay call for "CSc1nc(N2CCOCC2)c2c(c1C#N)CC(C)(C)OC2" please.
n

Dear colleague, could you share the recorded outcome for "CCc1ccc(NC(=S)NNC(=O)c2ccccc2OC(F)F)cc1" when you have a moment?
n

In this assay, the call recorded for "C=CCn1c(=S)[nH]c2ccccc2c1=O" was what?
n

Fill in: this test's call for "CCC(=O)N1CCN(c2ccccc2NC(=O)COc2cccc(C)c2)CC1" is ___
n

Record request — test call for "O=C(NC(=S)N1CCc2ccccc21)c1ccccc1Br"
n

// param item: CN(C(=O)CSC1=Nc2ccccc2C2=NC(c3ccccc3)C(=O)N12)C1CCCCC1 (stereo not drawn) ; yields the recorded call
n

Recorded test call requested for "CNc1nc(Cl)nc(NC(C)(C)C)n1"
y

So what was the verdict on "CC(C)c1nc(N2CCOCC2)c(C#N)c2c1CCCC2" in this test?
n

For this molecule, state the assay outcome: "COc1cc(NC(=O)C(=O)NNC(=O)C2CCCCC2)c(OC)cc1Cl"
n

What call does the record list for "O=C(Nc1ccc2[nH]c(=S)sc2c1)c1ccccc1" ?
n

Short answer needed: outcome of this test for "C=CCN(CC=C)C(=S)NC(=O)/C=C/c1ccc(C)cc1" ?
n

Hey, what did the test say about "Oc1ccccc1CNc1ccc(Br)cn1" ?
y

Lab log entry: O=C1c2ccccc2NC(c2ccc(-c3ccc(Br)cc3)o2)N1O (stereo not drawn) — outcome as called in the assay?
n

What outcome does the record of this test show for "O=c1c2ccccc2[nH]c(=S)n1CCN1CCN(Cc2ccccc2)CC1" ?
n

Every entry's value here was drawn from PubChem BioAssay AID623869.
